System: HL-60
Assay: NCI tumour cell line growth inhibition, 48 h
Activity calls are given as the source filed them. Cut-off read from the data, not from the text of the source: active = GI50 up to about 1.1 µM and inactive = higher.
ATTRIBUTE_MEASURED: GI50

# annotated cases, reported GI50 shown
In [3]: df
Out[3]:
                                   compound  attribute_measured           test_result
0  COc1ccc2c(c1)[n+]([O-])c(-c1ccccc1)c(N)[n+]2[O-]                GI50    41.6 µM (inactive)
1  COc1ccccc1Cc1nc(-c2ccccc2)nn(C2OC(COC(C)=O)C(OC(C)=O)C(OC(C)=O)C2OC(C)=O)c1=S (stereo not given)                GI50  > 64.7 µM (inactive)
2  O=C1C([N-]S(=O)(=O)c2ccccc2)=C([n+]2ccc(Cc3ccccc3)cc2)C(=O)c2ccccc21                GI50    1.38 µM (inactive)
3  NC(=O)CO/N=C1/C(=C2/C(=O)Nc3ccccc32)Nc2ccccc21                GI50    1.96 µM (inactive)
4  CC(C)(C)c1cc(C(=O)O)c(C(c2ccccc2)c2ccccc2C(=O)O)c(C(=O)O)c1 (stereo not given)                GI50   > 100 µM (inactive)

The record that follows has no GI50 shown yet.
Input line: Bench note: what GI50 did O=C(Nc1ccc2cc3ccccc3cc2c1)c1cc2c(cc1Cl)Sc1nccn1S2(=O)=O show?
Output line: 17.7 µM (inactive)

---

The molecules listed here are annotated with their GI50.
Tested on: NCI-H460
Experiment: NCI tumour cell line growth inhibition, 48 h
Active and inactive are the calls of the source. Cut-off read from the data, not from the text of the source: active = GI50 up to about 1.1 µM and inactive = higher.

MOLECULE	GI50
Cn1cc[n+](-c2cc(=O)n(C)c(=O)[n-]2)c1	> 100 µM (inactive)
O=C(O)C(C(=O)C(=O)C(C(=O)O)c1ccc(Cl)cc1)c1ccc(Cl)cc1 (configuration not stated)	3.46 µM (inactive)
COc1ccc(/C(=N/NC(N)=O)C2(O)C(=O)Nc3ccc([N+](=O)[O-])cc32)cc1 (configuration not stated)	19.3 µM (inactive)

Input line: Bench note: what GI50 did C=C1CC[C@@H]2[C@](C)(COC(=O)CCC(=O)OC)CCC[C@@]2(C)[C@@H]1CCC1=CC(=O)OC1 show?
Output line: > 100 µM (inactive)

Input line: Bench note: what GI50 did CCCCCCCCCCCCCP(=O)(OC)OC show?
Output line: 17.1 µM (inactive)

Input line: Bench note: what GI50 did C/C(=N\NC(=O)c1ccccc1O)c1c(O)cc(C)oc1=O show?
Output line: 43.6 µM (inactive)

Input line: Bench note: what GI50 did N#C/C(N)=C(C#N)/N=C/NCc1ccccc1 show?
Output line: > 100 µM (inactive)

Input line: Bench note: what GI50 did CCCn1c(=O)c(N2CCN(c3ccccc3)CC2)nc2sc3ccccc3c21 show?
Output line: > 100 µM (inactive)

Input line: Bench note: what GI50 did Cc1ccc(/C=C2\CCCc3ccccc3C2=O)cc1 show?
Output line: 7.23 µM (inactive)

---

System: NCI/ADR-RES
Test: NCI tumour cell line growth inhibition, 48 h
The source made the active and inactive calls. Cut-off read from the data, not from the text of the source: active = GI50 up to about 1.1 µM and inactive = higher.
The compounds listed here are annotated with their GI50.

COMPOUND	EXPERIMENTAL_SYSTEM	TEST_RESULT
CSC1=N/C(=C\c2ccco2)C(=O)N1CN1CCCCC1	NCI/ADR-RES	> 100 µM (inactive)
O=C1Oc2ccccc2C(=O)/C1=C/N1C(=O)CNC1=S	NCI/ADR-RES	> 100 µM (inactive)
CC(=O)OCC1OC(n2c(C)c(/N=N/c3ccccc3)c(C)c(C#N)c2=S)C(OC(C)=O)C(OC(C)=O)C1OC(C)=O (stereo unspecified)	NCI/ADR-RES	55.3 µM (inactive)

Input line: Bench note: what GI50 did NC1(c2cc3ccccc3s2)CCCCCC1 show?
Output line: 15 µM (inactive)

Input line: Bench note: what GI50 did CC12CC(c3ccccc3O1)C(C(=O)Nc1cccc(F)c1)C(=O)N2 (stereo unspecified) show?
Output line: 26.6 µM (inactive)

This collection of values is drawn from ChEMBL document CHEMBL1201862.
